Source of measurements: patent US20140186365A1

test.system: Human Serum Albumin (human) (UniProt P02768)
assay.info: BLI (Octet Red), HSA on sensor tips, VH domain in solution, 1:1 fit
Each entry below lists one item and its recorded kon value.
Give the number; M⁻¹ s⁻¹ is assumed, so skip it.

Worked cases, answers included:
binder: VH-4D6 (protein) VH: EVQLVQSGAEVKKPGESLKISCKGSGYSFTSYWIGWVRQMPGKGLEWMGIIYPGDSDTRYSPSFQGQVTISADKSISTAYLQWSSLKASDTAMYYCARLDCSGGSCYYYYYGMDVWGQGTTVTVSSSASGAGS
result.number: 10600
--
binder: VH-3E11 (protein) VH: QVQLQQSGPGLVKPSQTLSLTCAISGDSVSGNSAAWNWIRQSPSRGLEWLGRTYYRSKWYIGYAASLQSRLAINADTSKNQLSLRLSSVTPEDTAVYYCVGRHYSGHSGAFDTWGHGTMVTVSSSASGAGS
result.number: 5630
--
binder: VH-1C5 (protein) VH: QVQLQQSGPGLVKPSQTLSLTCAISGDSVSSNSAAWNWIRQSPSRGLEWLGRTYYRSKWYNDYAVSVKSRITINPDTSKNQFSLQLNSVTPEDTAVYYCARTPSTGTLDCWGRGTLVTVSSSASGAGS
result.number: 5260
--
binder: VH-3C2 (protein) VH: QVQLQQSGPGLVKPSQTLSLTCAISGDSVSSKSAAWNWIRQSPSRGLEWLGRTYYRSKWYNDYVVSLRSRITVSPDTSKNQFSLQLNSVTPEDTAMYYCARTRGHIDLWGRGTLVTVSSSASGAGS
result.number: 6500

Okay, next one:
IN: Please report the recorded kon for VH-3B11 (protein) VH: EVQLVQSGAEVKKPGESLKISCKGSGYSFTSYWIGWVRQMPGKGLEWMGIVYPGDSDTRYSPSFQGQVTISAGKSISTAYLQWSSLKASDTAMYYCARPSMGATTWISAFDIWGQGTTVTVSSSASGAGS .
OUT: 6980
